Sourced from PubChem BioAssay AID777

target: Cytochrome P450 2C9 (Homo sapiens); experiment: blockers of cytochrome P450 2C9 activity – biochemical, luminescence, ADME assay, primary screen (AID 777); details: CYP2C9 Supersomes, luciferin-H conversion, at 5 µM, active compounds read high
In all, about 96,000 compounds went through this assay and about 19,000 (20%) were called active. Only a sample is shown.
Known inhibition of a selection of compounds
I only need the number, in %, no unit after it.

Record excerpt, results attached:
| compound | inhibition (%) |
| --- | --- |
| COc1ccc(C(=O)N(Cc2ccc(N(C)C)cc2)C2CCS(=O)(=O)C2)cc1 (stereo unspecified) | -2.3 |
| Cc1ccc(C(=O)c2c(NC(=O)c3ccncc3)sc3c2CCCC3)cc1 | 67.8 |
| CC(C)NC(=O)c1ccc(Sc2ccccc2)c([N+](=O)[O-])c1 | 51 |
| Cc1ccc(S(=O)(=O)n2cnc3ccccc32)c(C)c1 | -7.6 |
| COC(=O)c1sc(NC(=O)c2csc3c2CCCC3)nc1C | -7.3 |

Attention now shifts to the item below.
[ask] Find the recorded inhibition belonging to Cc1ccc(C(=O)c2c(NC(=O)c3ccccc3)sc(C)c2C)cc1 and report it.
[reply] 43

* * *

target: Cytochrome P450 2C9 (Homo sapiens); assay: blockers of cytochrome P450 2C9 activity – biochemical, luminescence, ADME assay, primary screen (AID 777); conditions: CYP2C9 Supersomes, luciferin-H conversion, at 5 µM, active compounds read high
About 19,000 (20%) of roughly 96,000 compounds were called active. A selection follows.
observationType: inhibition (%)
I only need the number, in %, no unit after it.

Record excerpt, results attached:
| compound | inhibition [%] |
| --- | --- |
| CCOc1ccc(N=Cc2c(O)n(-c3cccc(C)n3)c(=O)c3ccccc23)cc1 | 18 |
| Cc1cccc(NC(=O)N(Cc2cc3cc(C)cc(C)c3[nH]c2=O)CC2COCCO2)c1 (stereo not drawn) | 85.5 |
| CCN1C(=O)C(CC(=O)Nc2cc(C)ccc2C)SC1=Nc1ccc(S(N)(=O)=O)cc1 (stereo not drawn) | 90.8 |
| O=C1CN(C(=O)COC(=O)C2CC(=O)N(Cc3ccco3)C2)c2ccccc2N1 (stereo not drawn) | -13.2 |
| COc1ccc2[nH]c(=O)c(CN(CC3CCCO3)C(=O)Nc3ccccc3)cc2c1 (stereo not drawn) | 19.4 |
| Cc1cc(NC(=O)c2cc(-c3cccs3)on2)nn1Cc1ccc(Cl)cc1 | -17.2 |
| Cc1nn(Cc2ccc(F)cc2)c(C)c1NC(=O)c1noc2c1CCc1ccccc1-2 | -1.9 |
| Cc1ccc(Cn2ccc(NC(=O)c3cc(C(C)C)on3)n2)cc1 | 97.5 |

[ask] Find the recorded inhibition belonging to Cc1ccc(-c2c3c(=O)n(C)c(=O)n(C)c3cn2-c2ccccc2O)cc1 and report it.
[reply] 43.7

[ask] Again, but for COc1ccc(C2C(C(=O)N3CCN(c4ccc(OC)cc4)CC3)c3ccccc3C(=O)N2C)cc1 (stereo not drawn)
[reply] 1.9

[ask] Again, but for Cc1ccc(C)c(NC(=O)C2CC(=O)N(C(C)C)C2)c1 (stereo not drawn)
[reply] -14.4

* * *

target: Cytochrome P450 2C9 (Homo sapiens) (UniProt P11712); experiment: blockers of cytochrome P450 2C9 activity – biochemical, luminescence, ADME assay, primary screen (AID 777); conditions: CYP2C9 Supersomes, luciferin-H conversion, at 5 µM
Sequence (P11712 whole entry, looked up): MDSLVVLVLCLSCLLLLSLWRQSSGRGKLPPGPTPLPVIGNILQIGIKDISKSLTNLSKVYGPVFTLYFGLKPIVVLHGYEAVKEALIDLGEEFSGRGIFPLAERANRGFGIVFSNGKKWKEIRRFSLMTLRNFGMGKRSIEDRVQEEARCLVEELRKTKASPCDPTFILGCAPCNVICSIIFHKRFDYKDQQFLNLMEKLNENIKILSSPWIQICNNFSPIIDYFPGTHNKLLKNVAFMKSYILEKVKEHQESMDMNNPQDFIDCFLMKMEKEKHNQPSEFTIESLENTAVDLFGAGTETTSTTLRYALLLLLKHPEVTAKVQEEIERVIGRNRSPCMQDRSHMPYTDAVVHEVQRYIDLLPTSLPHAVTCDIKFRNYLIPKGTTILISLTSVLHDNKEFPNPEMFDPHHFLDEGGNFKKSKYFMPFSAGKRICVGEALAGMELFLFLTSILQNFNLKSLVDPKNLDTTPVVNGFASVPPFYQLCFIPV
In all, about 96,000 compounds went through this assay and about 19,000 (20%) were called active.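 Rule for the calls: active = blocking of liver enzyme CYP2C9 beyond about 50% at 5 µM (limit read from the data); inactive = the rest.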 Not all results are given here.
Bench note: report the call from TRUE (active), FALSE (inactive)

Example entries and their recorded answers appear below.
| molecule | targetDesc | labelClass |
| --- | --- | --- |
| O=C(CNS(=O)(=O)c1ccc(Br)s1)NCc1ccc2c(c1)OCO2 | Cytochrome P450 2C9 (Homo sapiens) (UniProt P11712) | TRUE |
| C[C@H](NC(=O)OC(C)(C)C)c1nnc(SCC(N)=O)o1 | Cytochrome P450 2C9 (Homo sapiens) (UniProt P11712) | FALSE |
| CCc1c(-c2ccccc2)nc(N)c(C#N)c1-c1cccs1 | Cytochrome P450 2C9 (Homo sapiens) (UniProt P11712) | FALSE |
| Cc1ccc(NC(=O)c2cc(-c3ccc(C)o3)nc3ccccc23)nc1 | Cytochrome P450 2C9 (Homo sapiens) (UniProt P11712) | FALSE |
| CCN(CC)c1nc(-c2ccccc2)cc(C(F)(F)F)c1C#N | Cytochrome P450 2C9 (Homo sapiens) (UniProt P11712) | TRUE |

[ask] How did this test come out for Cc1cccc(NC(=O)CSC(N)=O)c1C ?
[reply] FALSE

[ask] Again, but for O=C(CNS(=O)(=O)c1ccc(Br)s1)N1CCN(C(=O)c2ccco2)CC1
[reply] FALSE

[ask] Again, but for CCc1ccccc1NC(=O)CSc1nnc([C@@H](NC(=O)OC(C)(C)C)C(C)CC)o1 (stereo partly specified)
[reply] TRUE

[ask] Again, but for Cc1ccc(C(=O)OCC(=O)NCc2ccc3c(c2)OCO3)s1
[reply] TRUE

[ask] Again, but for O=C(NCc1ccc2c(c1)OCO2)C12CC3CC(CC(C3)C1)C2
[reply] FALSE
